Ref: PubChem BioAssay

# experiment: inhibitors of TNFa-induced NFkB p65 translocation, primary screen, imaging, HUVEC, MLSMR starter and 10KST1 sets (AID 438);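 note: compound added about 3h40 before a 20 min TNFalpha stimulation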
# experimental context: HUVEC TNFa-induced p65 nuclear translocation; measured here: nuclei count (cytotoxicity indicator), at 2.08 µM
experimental endpoint: cell count
Form rule: numeric answer, no unit written next to it.

Here is how some molecules turned out for cell count.
molecule: CCOC(=O)c1c(C(C#N)C#N)cc(C)nc1C
result number: 521
--
molecule: Nc1nonc1OCCc1ccccc1
result number: 540
--
molecule: CCOCCSc1nc2c(c(=O)[nH]c(=O)n2C)n1CCCc1ccccc1
result number: 487
--
molecule: COc1cccc(-c2nc(NCC3CCCO3)c3ccccc3n2)c1O (configuration not stated)
result number: 553
--
molecule: O/N=C1\CCc2cc(Cl)ccc21
result number: 384

What does the record list as cell count for COC(=O)c1ccc(Nc2cc(C)nc(-c3ccccc3O)n2)cc1 ?
598

Here is the next molecule: O=C(NCCN1CCCCC1)c1ccc(=O)oc1
586

----------
# experiment: inhibitors of E-selectin induction by TNFa, primary screen, imaging, HUVEC, immunofluorescence, MLSMR starter and 10KST1 sets (AID 487);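 note: 100% = median nuclei count of all wells on the same plate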
# experimental context: HUVEC TNFalpha-induced E-selectin immunofluorescence imaging, at 2 µM; measured here: cell number, toxicity
experimental endpoint: nuclei count (%)
Hi! Could you send only the number? It should be in %, unit omitted.

Here is how some compounds turned out for nuclei count.
compound: CCOC(=O)c1c(C)n(C)c2ccc(OC)c(NC(=O)c3cccs3)c12
result number: 151
--
compound: OC1CN=C2Sc3ccccc3N2C1 (stereo unspecified)
result number: 188
--
compound: N#C/C(C(=O)NCc1ccco1)=C1/SC(Cc2ccc(F)cc2)C(=O)N1c1ccccc1 (stereo unspecified)
result number: 108

What does the record list as nuclei count for Cc1ccc2c(=O)c(CN(C)C3CCN(C)CC3)c(C)[nH]c2c1C ?
142

Here is the next compound: O=S(=O)(c1ccc(Cl)cc1)N1CCC(N2CCCCCC2)CC1
160

Here is the next compound: Cc1nc(Sc2cccn2C)c(C(F)(F)F)c(=O)[nH]1
108

Here is the next compound: CCCc1cc(=O)oc2c(CN3CCN(C)CC3)c(O)c(Cl)cc12
163

Here is the next compound: Cn1c(=O)[nH]c(=O)c2c1nc(N(CCO)Cc1ccccc1)n2Cc1ccccc1Cl
109

Here is the next compound: Cn1c(=O)cc(NCc2ccccc2)[nH]c1=O
164

Here is the next compound: COc1cccc(N2C(=O)C(O)=C(C(C)=O)C2c2ccc(OC)c(OC)c2)c1 (stereo unspecified)
106

Here is the next compound: CC1(C)Cc2nc(NCCCO)c(C#N)cc2CO1
94.8

----------
# experiment: inhibitors of Chlamydomonas gravitaxis, primary screen, whole organism, Chlamydomonas reinhardtii, WT vs cilia-less mutant, absorbance, 96-well (AID 463189);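 note: 0% = wild type cc124 cells in DMSO and 100% = ciliumless bld1 mutant cells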
# experimental context: OD600 absorbance, 2 days, at 10 µM
Activity calls are given as the source filed them.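 Rule for the calls: active = inhibition at or above 50% relative to wild type and mutant plate controls; inactive = inhibition below 50%.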
Allowed answers: active, inactive

compound: CSC1=C(C#N)C(c2ccc(C)s2)CC(=O)N1 (centres undefined)
cat: inactive

For this compound, state the assay outcome: CN(C)CCN(Cc1ccccc1)c1ccccn1
inactive

Here is the next compound: CCc1c(C(=O)O)[nH]c2ccc(Br)cc12
inactive

----------
# experiment: DUSP6 inhibitors restoring Erk phosphorylation by chemical complementation, primary imaging in DUSP6-transfected HeLa (AID 609)
# experimental context: HeLa MKP-3 transfected, phospho-Erk imaging KS statistic; measured here: nuclear pErk red intensity z-score; at 10 µM; stronger effect = higher value; cells stimulated with TPA for 15 min
# label = bin(measured z-score), where bins are group 1: < -0.4; group 2: ≥ -0.4 and < 0.005; group 3: ≥ 0.005

compound: CCOC(=O)CC(=O)CSc1[nH]c(=O)cc(C)c1C#N
cat: group 2
//
compound: Cc1ccc2[nH]c3c(N4CCN(Cc5ccccc5)CC4)ncnc3c2c1
cat: group 2
//
compound: COc1ccc(C2CC(=O)c3sc(N)nc3C2)cc1 (configuration not stated)
cat: group 1
//
compound: Cc1nn(-c2cccc(Cl)c2)c2c1C(c1ccncc1)C(C#N)=C(N)O2 (configuration not stated)
cat: group 1
//
compound: COCc1cc(=O)[nH]c(Nc2nc3ccc(C)cc3o2)n1
cat: group 2
//
compound: CCOC(=O)C(C)Oc1nc(Oc2ccccc2)nc(N(C)C)n1 (configuration not stated)
cat: group 3

Place this compound in its band: CCOC(=O)c1cc2cc(OC)ccc2[nH]1
group 3

Here is the next compound: C=CCn1c(SCC(=O)c2ccccc2)nnc1-c1ccc2c(c1)OCO2
group 3

Here is the next compound: CC(=O)C1(C)OC(N)=C(C#N)C(c2ccccc2)C1(C#N)C#N (configuration not stated)
group 1

Here is the next compound: O=C(Nc1nccs1)NC(C(F)(F)F)C(F)(F)F
group 2

Here is the next compound: CCOC(=O)COn1c(=O)c(-c2ccco2)[n+]([O-])c2ccccc21
group 2
